Assay System: Transcriptional activator protein LuxR (Aliivibrio fischeri, UniProt P12746)
Sequence (P12746 whole entry): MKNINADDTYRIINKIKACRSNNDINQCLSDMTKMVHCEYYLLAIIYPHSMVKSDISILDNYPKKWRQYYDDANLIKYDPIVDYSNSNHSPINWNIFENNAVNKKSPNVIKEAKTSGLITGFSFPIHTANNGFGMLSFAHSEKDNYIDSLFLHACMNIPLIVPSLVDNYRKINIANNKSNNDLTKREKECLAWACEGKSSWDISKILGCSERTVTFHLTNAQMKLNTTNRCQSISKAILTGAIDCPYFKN
Assay: Antagonist activity at Vibrio fischeri LuxR assessed as inhibition of 3-oxo-C6-HSL-induced quorum sensing activation mediated bioluminescence
Type: functional
Cond: read-out: IC50
Result Type: IC50 (µM)
One number for each entry, in µM.

# count of solved cases: 4
1. CCCCCCCCn1cc[n+](C(c2ccc(Cl)cc2Cl)c2ccc(Cl)cc2Cl)c1: 8.9
2. CCCCCCCCCCCCn1cc[n+](C(c2ccccc2)c2ccccc2)c1: 6.1
3. CCCCCCCCn1cc[n+](C(c2ccccc2)c2ccccc2)c1: 76
4. CCCCCCCCCCn1cc[n+](C(c2ccccc2)c2ccccc2)c1: 18

Could you tell me IC50 for each of these molecules? They are listed below.
1. CCCCCCn1cc[n+](C(c2ccc(Cl)cc2Cl)c2ccc(Cl)cc2Cl)c1
2. CCCCCCCCn1cc[n+](C2CCCC2)c1
3. CCCCCCCCCCCCCCn1cc[n+](C(c2ccccc2)c2ccccc2)c1
4. CCCCCCCCCCCCCCn1cc[n+](C(c2ccc(Cl)cc2)c2ccc(Cl)cc2)c1
5. CCCCCCCCCCn1cc[n+](C2CCCC2)c1
6. CCCCCCn1cc[n+](C(c2ccccc2)c2ccccc2)c1
7. CCCCCCCCCCCCn1cc[n+](C2CCCC2)c1

Reply:
1. 52
2. 68
3. 5.2
4. 75
5. 33
6. 153
7. 11

Give one value of IC50 per listed molecule.
1. CCCCCCCCn1cc[n+](C2c3ccccc3-c3ccccc32)c1
2. CCCCCCCCCCCCn1cc[n+](C2c3ccccc3-c3ccccc32)c1
3. CCCCCCCCCCCCn1cc[n+](C(c2ccc(Cl)cc2Cl)c2ccc(Cl)cc2Cl)c1
4. CCCCCCCCCCCCCCCCn1cc[n+](C2CCCC2)c1
5. CCCCCCCCCCCCCCCCn1cc[n+](C(c2ccccc2)c2ccccc2)c1

Reply:
[35, 1.4, 6.5, 5.3, 7.3]
